Test system: MCF7
Test: Antiproliferative activity against human MCF7 cells assessed as reduction in cell viability after 48 hrs by alamarBlue assay
Format: functional, cell-based
The source made the active and inactive calls. The calls are words filed in the database; no cut-off is given here.
Outcome Measure: Activity

CO[C@@H]1O[C@]23C=C[C@@H]4[C@@]1(CC[C@]1(C)[C@@H]([C@H](C)C/C=C/C(C)(C)O)CC[C@@]41C)[C@@H]2CC[C@H](OC(=O)CC(=O)O)C3(C)C : inactive
COC(=O)CC(=O)O[C@H]1CC[C@@H]2C(=C[C@H](O)[C@@H]3[C@@]2(C=O)CC[C@]2(C)[C@@H]([C@H](C)C/C=C/C(C)(C)OC)CC[C@@]32C)C1(C)C : inactive
C[C@H](C/C=C/C(C)(C)O)[C@H]1CC[C@@]2(C)[C@@H]3[C@@H](O)C=C4[C@@H](CC[C@H](OC(=O)CC(=O)O)C4(C)C)[C@]3(C=O)CC[C@]12C : inactive

* * *

Test system: RAW264.7
Test: Antiinflammatory activity in mouse RAW264.7 cells assessed as inhibition of LPS-induced NO production incubated for 12 hrs by Griess reagent based assay
Format: functional
Tick 1 (yes) if inhibition (INH) is 60% or greater. Tick 0 (no) if inhibition (INH) is less than 60%.

Known results for compounds:
CO[C@@H]1O[C@]23C=C[C@@H]4[C@@]1(CC[C@]1(C)[C@@H]([C@H](C)C/C=C/C(C)(C)O)CC[C@@]41C)[C@@H]2CC[C@H](OC(=O)CC(=O)O)C3(C)C : 0 (no)
CO[C@H]1C=C2[C@@H](CC[C@H](OC(=O)CC(=O)O)C2(C)C)[C@]2(C=O)CC[C@]3(C)[C@@H]([C@H](C)C/C=C/C(C)(C)OC)CC[C@@]3(C)[C@H]12 : 0 (no)
C[C@H](C/C=C/C(C)(C)O)[C@H]1CC[C@@]2(C)[C@@H]3[C@@H](O)C=C4[C@@H](CC[C@H](OC(=O)CC(=O)O)C4(C)C)[C@]3(C=O)CC[C@]12C : 1 (yes)

Ask: Quick check: does "CO[C@H]1O[C@]23C=C[C@@H]4[C@@]1(CC[C@]1(C)[C@@H]([C@H](C)C/C=C/C(C)(C)O)CC[C@@]41C)[C@@H]2CC[C@H](OC(=O)CC(=O)O)C3(C)C" have inhibition (INH) greater than or equal to 60%?
Reply: 1 (yes)

Ask: Now try "CO[C@@H](C=C(C)C)C[C@@H](C)[C@H]1CC[C@@]2(C)[C@@H]3[C@@H](O)C=C4[C@@H](CC[C@H](OC(=O)CC(=O)O)C4(C)C)[C@]3(C=O)CC[C@]12C" .
Reply: 1 (yes)

Ask: Repeat with "CO[C@H]1C=C2[C@@H](CC[C@H](O)C2(C)C)[C@]2(C=O)CC[C@]3(C)[C@@H]([C@H](C)C/C=C/C(C)(C)OC)CC[C@@]3(C)[C@H]12"
Reply: 0 (no)

Ask: And what about the compound "O=c1c(O)c(-c2ccc(O)c(O)c2)oc2cc(O)cc(O)c12" ?
Reply: 1 (yes)

Ask: Similarly, "CCOC(C)(C)/C=C/C[C@@H](C)[C@H]1CC[C@@]2(C)[C@@H]3[C@@H](O)C=C4[C@@H](CC[C@H](OC(=O)CC(=O)O)C4(C)C)[C@]3(C=O)CC[C@]12C" ?
Reply: 0 (no)

Ask: Can you handle "COC(=O)CC(=O)O[C@H]1CC[C@@H]2C(=C[C@H](O)[C@@H]3[C@@]2(C=O)CC[C@]2(C)[C@@H]([C@H](C)C/C=C/C(C)(C)O)CC[C@@]32C)C1(C)C" next?
Reply: 1 (yes)

Ask: And for "COC(=O)CC(=O)O[C@H]1CC[C@@H]2C(=C[C@H](O)[C@@H]3[C@@]2(C=O)CC[C@]2(C)[C@@H]([C@H](C)C/C=C/C(C)(C)OC)CC[C@@]32C)C1(C)C" ?
Reply: 1 (yes)

Ask: Then this compound: "C/C=C/C(=O)O[C@H]1CC[C@@H]2C(=C[C@H](O)[C@@H]3[C@@]2(C=O)CC[C@]2(C)[C@@H]([C@H](C)C/C=C/C(C)(C)O)CC[C@@]32C)C1(C)C"
Reply: 1 (yes)

Ask: What do we get for "CO[C@H]1C=C2[C@@H](CC[C@H](OC(=O)CC(=O)O)C2(C)C)[C@]2(C=O)CC[C@]3(C)[C@@H]([C@H](C)C/C=C/C(C)(C)O)CC[C@@]3(C)[C@H]12" ?
Reply: 0 (no)

* * *

Assay: Cytotoxicity against mouse RAW264.7 cells assessed as cell viability at 15 ug/ml after 24 hrs by alamarBlue assay relative to control
Type: cell-based
Conditions: read-out: Activity
This listing pairs compounds with measured viability at 24 h, 15 ug/ml.
Please reply with the bare figure in % and do not write the unit itself.

Ask: I have this compound here, "C/C=C/C(=O)O[C@H]1CC[C@@H]2C(=C[C@H](O)[C@@H]3[C@@]2(C=O)CC[C@]2(C)[C@@H]([C@H](C)C/C=C/C(C)(C)O)CC[C@@]32C)C1(C)C" , and I need its recorded viability at 24 h, 15 ug/ml.
Reply: 94.7

Ask: Also "CO[C@H]1O[C@]23C=C[C@@H]4[C@@]1(CC[C@]1(C)[C@@H]([C@H](C)C/C=C/C(C)(C)O)CC[C@@]41C)[C@@H]2CC[C@H](OC(=O)CC(=O)O)C3(C)C" , if possible.
Reply: 59.6

Ask: Same again, this time with "COC(=O)CC(=O)O[C@H]1CC[C@@H]2C(=C[C@H](O)[C@@H]3[C@@]2(C=O)CC[C@]2(C)[C@@H]([C@H](C)C/C=C/C(C)(C)O)CC[C@@]32C)C1(C)C"
Reply: 67.6

Ask: Param item: "COC(=O)CC(=O)O[C@H]1CC[C@@H]2C(=C[C@H](O)[C@@H]3[C@@]2(C=O)CC[C@]2(C)[C@@H]([C@H](C)C/C=C/C(C)(C)OC)CC[C@@]32C)C1(C)C"
Reply: 69

Ask: Check "CO[C@@H](C=C(C)C)C[C@@H](C)[C@H]1CC[C@@]2(C)[C@@H]3[C@@H](O)C=C4[C@@H](CC[C@H](OC(=O)CC(=O)O)C4(C)C)[C@]3(C=O)CC[C@]12C" too.
Reply: 61.9

Ask: Also "CO[C@@H]1O[C@]23C=C[C@@H]4[C@@]1(CC[C@]1(C)[C@@H]([C@H](C)C/C=C/C(C)(C)O)CC[C@@]41C)[C@@H]2CC[C@H](OC(=O)CC(=O)O)C3(C)C" , if possible.
Reply: 113

Ask: Cool, now "CO[C@H]1C=C2[C@@H](CC[C@H](OC(=O)CC(=O)O)C2(C)C)[C@]2(C=O)CC[C@]3(C)[C@@H]([C@H](C)C/C=C/C(C)(C)O)CC[C@@]3(C)[C@H]12"
Reply: 125

Ask: Quick one: "CO[C@H]1C=C2[C@@H](CC[C@H](O)C2(C)C)[C@]2(C=O)CC[C@]3(C)[C@@H]([C@H](C)C/C=C/C(C)(C)OC)CC[C@@]3(C)[C@H]12"
Reply: 90.5

Ask: Also "CCOC(C)(C)/C=C/C[C@@H](C)[C@H]1CC[C@@]2(C)[C@@H]3[C@@H](O)C=C4[C@@H](CC[C@H](OC(=O)CC(=O)O)C4(C)C)[C@]3(C=O)CC[C@]12C" , if possible.
Reply: 89.7

Ask: Try this compound too: O=c1c(O)c(-c2ccc(O)c(O)c2)oc2cc(O)cc(O)c12 [QUERCETIN]
Reply: 142

Ask: And what about the compound "C[C@H](C/C=C/C(C)(C)O)[C@H]1CC[C@@]2(C)[C@@H]3[C@@H](O)C=C4[C@@H](CC[C@H](OC(=O)CC(=O)O)C4(C)C)[C@]3(C=O)CC[C@]12C" ?
Reply: 53.8

Ask: Record: "CO[C@H]1C=C2[C@@H](CC[C@H](OC(=O)CC(=O)O)C2(C)C)[C@]2(C=O)CC[C@]3(C)[C@@H]([C@H](C)C/C=C/C(C)(C)OC)CC[C@@]3(C)[C@H]12"
Reply: 72.4

* * *

System: WiDr
Test: Antiproliferative activity against human WiDr cells assessed as reduction in cell viability after 48 hrs by alamarBlue assay
Type: functional, cell-based
The source made the active and inactive calls. The calls are words filed in the database; no cut-off is given here.
Outcome Measure: Activity

CO[C@@H](C=C(C)C)C[C@@H](C)[C@H]1CC[C@@]2(C)[C@@H]3[C@@H](O)C=C4[C@@H](CC[C@H](OC(=O)CC(=O)O)C4(C)C)[C@]3(C=O)CC[C@]12C : inactive
COC(=O)CC(=O)O[C@H]1CC[C@@H]2C(=C[C@H](O)[C@@H]3[C@@]2(C=O)CC[C@]2(C)[C@@H]([C@H](C)C/C=C/C(C)(C)OC)CC[C@@]32C)C1(C)C : inactive
CO[C@H]1C=C2[C@@H](CC[C@H](O)C2(C)C)[C@]2(C=O)CC[C@]3(C)[C@@H]([C@H](C)C/C=C/C(C)(C)OC)CC[C@@]3(C)[C@H]12 : inactive

Cited source: ChEMBL document CHEMBL4627387
